Target: human ether-à-go-go-related gene (hERG) potassium channel (human, UniProt Q12809);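 note: peak tail current of the secondary pulse compared with the same well before compound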
Sequence (Q12809 whole entry, looked up): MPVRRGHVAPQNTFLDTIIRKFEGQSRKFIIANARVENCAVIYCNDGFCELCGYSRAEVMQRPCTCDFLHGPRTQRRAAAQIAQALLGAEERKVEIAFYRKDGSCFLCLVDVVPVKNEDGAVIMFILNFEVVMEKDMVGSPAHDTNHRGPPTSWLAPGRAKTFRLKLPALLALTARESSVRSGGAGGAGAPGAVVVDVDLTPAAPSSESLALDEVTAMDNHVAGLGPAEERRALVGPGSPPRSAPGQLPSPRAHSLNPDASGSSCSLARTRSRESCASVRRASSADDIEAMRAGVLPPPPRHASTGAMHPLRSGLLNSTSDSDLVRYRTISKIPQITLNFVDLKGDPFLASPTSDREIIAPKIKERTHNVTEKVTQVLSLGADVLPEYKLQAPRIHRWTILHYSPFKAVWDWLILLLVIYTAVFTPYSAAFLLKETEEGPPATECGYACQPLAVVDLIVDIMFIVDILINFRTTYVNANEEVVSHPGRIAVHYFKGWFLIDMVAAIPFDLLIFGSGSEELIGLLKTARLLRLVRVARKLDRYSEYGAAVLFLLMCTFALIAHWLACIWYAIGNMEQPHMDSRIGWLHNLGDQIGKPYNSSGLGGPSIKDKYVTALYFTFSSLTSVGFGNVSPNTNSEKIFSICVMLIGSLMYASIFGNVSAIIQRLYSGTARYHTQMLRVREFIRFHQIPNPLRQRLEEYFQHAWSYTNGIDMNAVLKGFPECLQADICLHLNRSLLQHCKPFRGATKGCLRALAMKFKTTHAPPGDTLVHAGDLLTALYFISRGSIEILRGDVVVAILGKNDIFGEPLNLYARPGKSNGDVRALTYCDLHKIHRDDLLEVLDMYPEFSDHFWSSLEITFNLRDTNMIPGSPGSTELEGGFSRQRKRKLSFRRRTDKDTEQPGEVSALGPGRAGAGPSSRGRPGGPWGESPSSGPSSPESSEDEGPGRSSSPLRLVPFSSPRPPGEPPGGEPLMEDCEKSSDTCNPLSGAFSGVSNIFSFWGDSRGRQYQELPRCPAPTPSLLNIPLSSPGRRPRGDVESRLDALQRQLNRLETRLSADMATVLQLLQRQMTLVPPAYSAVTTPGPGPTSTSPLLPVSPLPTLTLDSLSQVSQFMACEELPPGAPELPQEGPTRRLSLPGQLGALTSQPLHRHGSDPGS
Assay: primary screen, population patch clamp on CHO cells stably expressing hERG; higher = less effect of the substance
Hit rate of the full screen: of about 310,000 compounds, about 14,000 (4.5%) showed an effect of 50% or more. The effect is printed as a negative number. For the sample, strong results were picked, then their nearest neighbours and some compounds at random.
Each entry gets Condition not met if its hERG current change (%, negative = inhibition) at 10uM stays under -40%, and Condition met if its hERG current change (%, negative = inhibition) at 10uM is -40% or above.

Below are worked cases with known answers.
Cc1ccc(C(O)(C(=O)NNc2ccc3ccccc3[nH+]2)c2ccc(C)cc2)cc1.[Cl-]; Condition met
CCCCCCNC(=O)CCc1nc2cccnc2n1Cc1ccc(OC)cc1; Condition not met

Please examine the following record next.
Please check the record O=C(NCc1cccnc1)c1cn(-c2ccccc2)nc1-c1cccs1 and state if its hERG current change (%, negative = inhibition) at 10uM is at or above -40%.
Condition met

Source: paper PMC4336329
